Measured melting point of individual entries
READOUT NAME: melting point

| STRUCTURE AS SMILES | READOUT NAME | RESULT VALUE |
| --- | --- | --- |
| COc1ccc(CN2CCN(C(=O)/C=C/c3ccccc3)CC2)cc1 | melting point | 120.8 to 122.6 °C |
| COc1ccc(CN2CCN(C(=O)CCCOc3ccccc3)CC2)cc1 | melting point | 88.3 to 91.3 °C |
| COc1ccc(CN2CCN(C(=O)CCCc3ccccc3)CC2)cc1 | melting point | 91 to 93.9 °C |
| COc1ccc(CN2CCN(C(=O)Cc3ccccc3)CC2)cc1 | melting point | 97.6 to 99.8 °C |

###

# TARGET ENTITY: σ1R (Cavia porcellus)
# Construct: from tissue; host or cells: guinea pig brain membrane homogenates
# Sequence (Q60492 whole entry): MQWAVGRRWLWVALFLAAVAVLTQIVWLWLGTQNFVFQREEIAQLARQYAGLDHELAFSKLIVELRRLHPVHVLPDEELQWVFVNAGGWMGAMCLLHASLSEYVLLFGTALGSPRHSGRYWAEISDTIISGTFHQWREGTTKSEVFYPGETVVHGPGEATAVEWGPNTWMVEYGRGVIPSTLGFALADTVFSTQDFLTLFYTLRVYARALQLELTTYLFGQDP
# PROCEDURE DETAILS: σ1R radioligand binding assay ([3H]-pentazocine, guinea pig brain membrane homogenates)
# SETUP CONDITIONS: mean ± SD of three independent experiments; [3H]-pentazocine; free base
pKi: −log10 of the molar value.
Lab note: anything with pKi at or over 8 counts as MET; the rest go in NOT MET.

| COMPOUND | CATEGORY LABEL |
| --- | --- |
| COc1ccc(CN2CCN(C(=O)CCC3CCCCC3)CC2)cc1 [Compound 15] | MET |
| COc1ccc(CN2CCN(C(=O)CCCOc3ccccc3)CC2)cc1 [Compound 20] | NOT MET |
| COc1ccc(CN2CCN(C(=O)Cc3ccccc3)CC2)cc1 [Compound 22] | NOT MET |

###

# TARGET ENTITY: UniProt Q60492
pKi: −log10 of the molar value.
READOUT NAME: pKi

| STRUCTURE AS SMILES | READOUT NAME | RESULT VALUE |
| --- | --- | --- |
| O=C(CCCCc1ccccc1)N1CCN(Cc2ccc(CO)cc2)CC1 | pKi | 8.21 |
| COc1ccc(CN2CCN(C(=O)CCc3ccccc3)CC2)cc1 | pKi | 8.06 |
| COc1ccc(CN2CCN(C(=O)CCCc3ccccc3)CC2)cc1 | pKi | 7.88 |
